# experimental_target: Tubulin beta
# assay_notes: Binding affinity to CM5 chip immobilized beta tubulin (unknown origin) assessed as thermodynamic constants by SPR assay
# Type: protein assay, Homo sapiens
Recorded Kd for the following compounds
measured_endpoint: Kd (nM)

compound=COc1ccc2c(c1OC)C(=O)O[C@@H]2[C@H]1c2c(cc3c(c2OC)OCO3)CCN1Cc1cn(-c2ccc(F)cc2)nn1 experimental_target="Tubulin beta" display_unit=nM value_measured=21.5
compound=COc1ccc2c(c1OC)C(=O)O[C@@H]2[C@H]1c2c(cc3c(c2OC)OCO3)CCN1Cc1cn(Cc2ccccc2)nn1 experimental_target="Tubulin beta" display_unit=nM value_measured=133
compound="CCC(O)Cn1cc(CN2CCc3c(Br)c4c(c(OC)c3[C@@H]2[C@H]2OC(=O)c3c2ccc(OC)c3OC)OCO4)nn1 (stereo partly specified)" experimental_target="Tubulin beta" display_unit=nM value_measured=132
compound=COc1ccc2c(c1OC)C(=O)O[C@@H]2[C@H]1c2c(c(Br)c3c(c2OC)OCO3)CCN1Cc1cn(-c2ccc(Br)cc2)nn1 experimental_target="Tubulin beta" display_unit=nM value_measured=36.9
compound=COc1ccc2c(c1OC)C(=O)O[C@@H]2[C@H]1c2c(cc3c(c2OC)OCO3)CCN1C experimental_target="Tubulin beta" display_unit=nM value_measured=579
compound=COc1ccc2c(c1OC)C(=O)O[C@@H]2[C@H]1c2c(c(Br)c3c(c2OC)OCO3)CCN1Cc1cn(-c2ccc(Cl)c(Cl)c2)nn1 experimental_target="Tubulin beta" display_unit=nM value_measured=374.3
